Values compiled from paper PMC4336329.

target: human ether-à-go-go-related gene (hERG) potassium channel (human, UniProt Q12809); test: primary screen, population patch clamp on CHO cells stably expressing hERG; higher = less effect of the substance;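 further: peak tail current of the secondary pulse compared with the same well before compound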
Sequence (Q12809 whole entry, looked up): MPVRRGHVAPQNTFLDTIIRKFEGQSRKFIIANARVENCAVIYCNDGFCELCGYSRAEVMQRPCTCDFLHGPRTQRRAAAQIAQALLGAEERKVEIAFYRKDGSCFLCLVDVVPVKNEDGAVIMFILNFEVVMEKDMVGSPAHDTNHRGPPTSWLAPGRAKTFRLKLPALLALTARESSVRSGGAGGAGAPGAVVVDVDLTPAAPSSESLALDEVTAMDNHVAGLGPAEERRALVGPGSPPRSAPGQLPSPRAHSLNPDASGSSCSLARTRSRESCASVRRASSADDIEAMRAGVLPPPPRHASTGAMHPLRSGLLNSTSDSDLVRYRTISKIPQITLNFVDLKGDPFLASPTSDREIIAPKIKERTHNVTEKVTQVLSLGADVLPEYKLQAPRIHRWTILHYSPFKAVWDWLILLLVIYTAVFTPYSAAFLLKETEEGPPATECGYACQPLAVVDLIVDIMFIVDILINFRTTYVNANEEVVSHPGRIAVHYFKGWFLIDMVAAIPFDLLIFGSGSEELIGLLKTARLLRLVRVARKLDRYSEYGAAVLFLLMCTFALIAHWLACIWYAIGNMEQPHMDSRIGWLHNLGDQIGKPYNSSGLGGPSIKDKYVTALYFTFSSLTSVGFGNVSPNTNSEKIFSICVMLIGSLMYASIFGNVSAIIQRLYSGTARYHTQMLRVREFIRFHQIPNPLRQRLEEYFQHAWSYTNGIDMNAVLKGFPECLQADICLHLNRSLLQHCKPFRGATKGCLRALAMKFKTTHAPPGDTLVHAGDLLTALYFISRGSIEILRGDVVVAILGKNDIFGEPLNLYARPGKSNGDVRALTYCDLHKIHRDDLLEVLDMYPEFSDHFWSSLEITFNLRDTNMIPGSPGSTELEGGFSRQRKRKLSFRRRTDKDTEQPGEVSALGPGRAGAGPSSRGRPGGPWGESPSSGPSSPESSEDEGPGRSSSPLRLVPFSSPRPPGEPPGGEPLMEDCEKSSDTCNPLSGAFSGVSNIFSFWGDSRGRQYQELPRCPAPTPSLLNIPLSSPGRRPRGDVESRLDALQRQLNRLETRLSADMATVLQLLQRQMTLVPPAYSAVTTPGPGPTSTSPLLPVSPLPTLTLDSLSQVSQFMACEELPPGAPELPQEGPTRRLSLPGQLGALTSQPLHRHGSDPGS
The whole screen tested about 310,000 compounds, of which about 14,000 (4.5%) showed an effect of 50% or more. The effect is printed as a negative number. Shown is part of a subset that was picked to be rich in strong results.
Attribute measured: hERG current change (%, negative = inhibition) at 10uM (%)
Quick reminder: number only, in %, skip the unit.

compound=CN1/C(=C\C=Nc2ccccc2)C(C)(C)c2ccccc21 quantitative_result=-72.1
compound=CCCN1CCC(=O)N([C@H](CSc2ccccc2)c2ccccc2)CC1 quantitative_result=-77.2

response.value for Cc1cc(NC(=O)Nc2ccc(F)cc2)no1 (field: hERG current change (%, negative = inhibition) at 10uM) = -8.3

response.value for Cc1ccccc1N=C/C=C1\N(C)c2ccccc2C1(C)C (field: hERG current change (%, negative = inhibition) at 10uM) = -70.7

response.value for COc1ccc(/C(O)=C2/C(=O)C(=O)N(CC3CCCO3)C2c2ccc(OC)c(OC)c2)cc1 (centres unmarked) (field: hERG current change (%, negative = inhibition) at 10uM) = 1.45

----------
target: human ether-à-go-go-related gene (hERG) potassium channel (human); test: primary screen, population patch clamp on CHO cells stably expressing hERG; higher = less effect of the substance;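 further: peak tail current of the secondary pulse compared with the same well before compound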
The whole screen tested about 310,000 compounds, of which about 14,000 (4.5%) showed an effect of 50% or more. Effects have a minus sign here. This is one part of a sample in which strong results are shown more often than they occur.
Consider the following compounds and their measured hERG current change (%, negative = inhibition) at 10uM readings.
Quick reminder: number only, in %, skip the unit.

compound="O=C(NCC1CCCO1)C1CCN(C2CCN(Cc3ccco3)CC2)CC1 (stereo not shown)" quantitative_result=-51
compound=CN(C)CCCN(Cc1cc2cc3c(cc2[nH]c1=O)OCO3)C(=S)Nc1cccc(Cl)c1 quantitative_result=-45.7
compound=CCOc1ccc(CCN2C(=O)c3ccc(C(=O)O)cc3C2=O)cc1OCC quantitative_result=-3.15
compound="O=C(NCC1CCCO1)C1CCN(C2CCN(C3CCCCCC3)CC2)CC1 (stereo not shown)" quantitative_result=28.4
compound=CN(C)CCCN(Cc1cc2cc3c(cc2[nH]c1=O)OCO3)C(=S)Nc1ccccc1 quantitative_result=-36.6

response.value for O=C(O)/C=C1\NC(=O)c2ccccc21 (field: hERG current change (%, negative = inhibition) at 10uM) = 17

response.value for Cn1c(C(=O)O)ccc1S(=O)(=O)N(Cc1ccccc1)Cc1ccccc1 (field: hERG current change (%, negative = inhibition) at 10uM) = 16.5

response.value for COc1ccccc1OCC(=O)Nc1cc(S(=O)(=O)N2CCCCC2)ccc1N1CCCCC1 (field: hERG current change (%, negative = inhibition) at 10uM) = 2.21

response.value for O=C(Nc1cccc(F)c1)C1C2C=CC3(CN(CCCN4CCOCC4)C(=O)C13)O2 (stereo not shown) (field: hERG current change (%, negative = inhibition) at 10uM) = -8.87

response.value for O=C(NN(CC(O)COc1ccccc1)CC(O)COc1ccccc1)c1ccccc1 (stereo not shown) (field: hERG current change (%, negative = inhibition) at 10uM) = -66.1

response.value for COC(=O)c1ccc2c(c1)C(=O)/C(=C/c1ccc(O)cc1)O2 (field: hERG current change (%, negative = inhibition) at 10uM) = 18.2

response.value for CCOc1ccccc1OCC(=O)Nc1cc(S(=O)(=O)N2CCCCC2)ccc1N1CCN(CC)CC1 (field: hERG current change (%, negative = inhibition) at 10uM) = -71.5

response.value for COC(=O)c1ccc2c(c1)C(C)(C)C(/C=C/c1ccccc1O)=[N+]2C.[I-] (field: hERG current change (%, negative = inhibition) at 10uM) = -69.5

response.value for O=C(NCC1CCCO1)C1CCN(C2CCN(C(=O)CC3CCCC3)CC2)CC1 (stereo not shown) (field: hERG current change (%, negative = inhibition) at 10uM) = -10

response.value for O=C(NCC1CCCO1)C1CCN(C2CCN(Cc3cccs3)CC2)CC1 (stereo not shown) (field: hERG current change (%, negative = inhibition) at 10uM) = -64.2

response.value for NS(=O)(=O)c1ccc(F)c(C(=O)O)c1 (field: hERG current change (%, negative = inhibition) at 10uM) = 8.68
